Field: pIC50. Provide a value for each of the binders that follow.
target: HLA-A*6802 (human); assay: competition for purified HLA vs 125I-labelled probe peptide, gel filtration; settings: remark: other sources report otherwise
Answers are plain numbers, as −log10 of the molar value.

VLLGVVFGV [Her2/neu.665.L2V9] :: 5.10
CLTSTVQLV [Her2/neu.789] :: 5.10

Below: the item to evaluate.
input: State the recorded pIC50 for this entry: VVLGVVFGI [Her2/neu.665]
output: 5.70
